# Tested on: MCF7
# assay_comment: Antiproliferative activity against human MCF7 cells after 72 hrs by CCK-8 assay
# Format: functional, cell-based
# recorded_conditions: MCF7, 72 h
Measured IC50, listed per entry for reference.
measured_attribute: IC50 (µM)

{"compound": "COc1ccc(/C=C\\c2cc(OC)c(OC)c(OC)c2)cc1OP(=O)(O)O [FOSBRETABULIN DISODIUM]", "test_target": "MCF7", "measured_attribute": "IC50", "readout_value": 0.96}
{"compound": "COc1ccc(/C=C\\c2cc(OC)c(OC)c(OC)c2)cc1O", "test_target": "MCF7", "measured_attribute": "IC50", "readout_value": 0.67}
{"compound": "CCOc1ccc(-c2oc3cc(OC)ccc3c2C(=O)c2cc(OC)c(OC)c(OC)c2)cc1", "test_target": "MCF7", "measured_attribute": "IC50", "readout_value": 0.91}
{"compound": "COc1ccc(-c2oc3cc(OC)c(F)cc3c2C(=O)c2cc(OC)c(OC)c(OC)c2)cc1", "test_target": "MCF7", "measured_attribute": "IC50", "readout_value": 6.49}
